# Substrate: [H][C@]12C[C@]([H])(OO1)[C@H](C/C=C\CCCC(=O)O)[C@H]2/C=C/[C@@H](O)CCCCC
# experimental_details: purified protein
# experimental_parameters: PGD2 synthase reaction; 2 mM GSH fixed (saturating); PGH2 0.08-40 μM
measurement_kind: kcat/Km
State the result as a value with its unit after it.

protein	kcat/Km
rCsGST-σ3 (Clonorchis sinensis) (protein) MSGEKYKLYYFPFRARGEVIRMVLHAAGVPFDDERIPMDDWPKRKSEIPGGRMPVLQVIDPDKPDTPKNFVEGMAIARMLAKRFDLMDDTEEGYYNTERMIGECEDVFKEFRSVFLSPADKKEELLKEAMETSIPKQLDLISKSLSESAGKFVAGCKVTLGDLCLLACLDHVDKSDPEFLKDKYPKLLEWREEVLKEKPKLADYIKSRPDTPF	3e+06 M⁻¹ s⁻¹

Please fill in: kcat/Km reported for rCsPGDS1 (Clonorchis sinensis) (protein) MSQYKLTYFNLRGRAEPIRMVLIISGTPFEDCRIEVSDWPSKKSTIPGGKLPILEVTSPCGKKTLMTESMATARYLAKQHNLMGATDEDYYKIEKTIGECGDLHDLVYKIARAPDAEKPKLIEELKKLENAPRLLNLMSETLKSNPSGFVAGEKVSLGDIALLCTLDQFESVYPGFLKENYPIFANHREHIMELQPKLAEHIKTRPTTIV = 4.3e+06 M⁻¹ s⁻¹

Please fill in: kcat/Km reported for rCsGST-σ1 (Clonorchis sinensis) (protein) MADEHYTLFYFQFRGRAEAIRMILHANGVHFKDERFTMNEWPERRNQIPGSRVPLLQVKKNKTHEVANYVESMAIARMLAKRFHMMGDSEEEYYRVERMIGQCADLDKEFYTAFFAAADQKEEMLKKSMREAVPKMLDLISKSISESGGKFAAGDKVTLGDICLLTSMDHVRKHDPEFLGKHYPKLLVLEQEVLKAKPKLAEYIRTRPETPL = 4.9e+06 M⁻¹ s⁻¹
